Tested target: Bromodomain-containing protein 4 (Homo sapiens) (UniProt O60885)
Assay details: Inhibition of recombinant human BRD4 (44 to 168) residues expressed in Escherichia coli at 1 uM using H4 peptide as substrate preincubated for 15 mins followed by substrate addition and measured after 60 mins by Alphascreen assay relative to control
Measurement label: inhibition (%)

In [3]: df
Out[3]:
                    structure_smiles_string  measurement_label  result_number
0  C/C=C/Cn1cc(-c2ccc(C(=O)N3CCN(C)CC3)c(Cl)c2)n2cncc2c1=O         inhibition             -3
1  C/C=C/Cn1cc(-c2ccc(C(=O)N3CCN(S(C)(=O)=O)CC3)c(Cl)c2)n2cncc2c1=O         inhibition             -5
2  C/C=C/Cn1cc(-c2ccc(C(=O)N3CCNCC3)c(Cl)c2)n2cncc2c1=O         inhibition             -6
3  C/C=C/Cn1cc(-c2ccc(C(=O)N3CCCC3)c(Cl)c2)n2cncc2c1=O         inhibition             -4
4  C/C=C/Cn1cc(-c2ccc(C(=O)N3CCOCC3)c(Cl)c2)n2cncc2c1=O         inhibition             -2
5  C/C=C/Cn1cc(-c2ccc(C(=O)N3CCC(C(N)=O)CC3)c(Cl)c2)n2cncc2c1=O         inhibition             -5
6  CCS(=O)(=O)Nc1ccc(Oc2ccc(F)cc2)c(-c2cn(C)c(=O)c3cncn23)c1         inhibition            100
7  C/C=C/Cn1cc(-c2ccc(C(=O)NC3CCS(=O)(=O)CC3)c(Cl)c2)n2cncc2c1=O         inhibition             -5

###

Below: a set of entries, each annotated with reported log10(IC50).
Tested target: Bromodomain-containing protein 9 (Homo sapiens, UniProt Q9H8M2)
Sequence (Q9H8M2 whole entry): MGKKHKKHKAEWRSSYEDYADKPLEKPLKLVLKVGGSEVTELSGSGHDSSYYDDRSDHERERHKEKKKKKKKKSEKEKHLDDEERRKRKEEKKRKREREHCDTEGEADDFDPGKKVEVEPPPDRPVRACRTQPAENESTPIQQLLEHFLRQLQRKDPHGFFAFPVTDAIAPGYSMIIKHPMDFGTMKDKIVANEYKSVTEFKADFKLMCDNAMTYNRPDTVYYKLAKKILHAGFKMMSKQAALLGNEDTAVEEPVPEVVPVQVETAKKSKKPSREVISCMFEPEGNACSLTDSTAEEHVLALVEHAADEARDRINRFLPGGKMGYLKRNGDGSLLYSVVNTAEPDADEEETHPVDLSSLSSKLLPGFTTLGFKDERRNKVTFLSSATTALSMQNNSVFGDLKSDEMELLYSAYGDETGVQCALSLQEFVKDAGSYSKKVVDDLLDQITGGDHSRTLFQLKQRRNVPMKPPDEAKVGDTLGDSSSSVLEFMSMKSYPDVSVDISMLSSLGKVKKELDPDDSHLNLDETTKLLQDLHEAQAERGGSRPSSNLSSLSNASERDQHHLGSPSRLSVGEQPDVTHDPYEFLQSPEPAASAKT
Assay details: Inhibition of BRD9 (unknown origin) using H4 peptide as substrate preincubated for 15 mins followed by substrate addition and measured after 60 mins by Alphascreen assay
Measurement label: log10(IC50) (log10 of the value in nM)

>>> df
                    structure_smiles_string                             tested_target  measurement_label  result_number
0  C/C=C/Cn1cc(-c2ccc(C(=O)N3CCOCC3)c(F)c2)n2cncc2c1=O  Bromodomain-containing protein 9 (Homo sapiens, UniProt Q9H8M2)        log10(IC50)           2.99
1  C/C=C/Cn1cc(-c2ccc(C(=O)N3CCC(C(N)=O)CC3)c(Cl)c2)n2cncc2c1=O  Bromodomain-containing protein 9 (Homo sapiens, UniProt Q9H8M2)        log10(IC50)           2.42
2  CCCn1cc(-c2ccc(C(=O)N3CCNCC3)c(Cl)c2)n2cncc2c1=O  Bromodomain-containing protein 9 (Homo sapiens, UniProt Q9H8M2)        log10(IC50)           2.97
3  CCn1cc(-c2ccc(C(=O)NC3CCS(=O)(=O)CC3)c(Cl)c2)n2cncc2c1=O  Bromodomain-containing protein 9 (Homo sapiens, UniProt Q9H8M2)        log10(IC50)           3.01
4  C/C=C/Cn1cc(-c2ccc(C(=O)N3CCOCC3)c(Cl)c2)n2cncc2c1=O  Bromodomain-containing protein 9 (Homo sapiens, UniProt Q9H8M2)        log10(IC50)           2.67
5         COc1cccc(-c2cn(C)c(=O)c3cncn23)c1  Bromodomain-containing protein 9 (Homo sapiens, UniProt Q9H8M2)        log10(IC50)           3.48
6  C/C=C/Cn1cc(-c2ccc(C(=O)N3CCNCC3)c(Cl)c2)n2cncc2c1=O  Bromodomain-containing protein 9 (Homo sapiens, UniProt Q9H8M2)        log10(IC50)           1.54
7     Cn1cc(-c2cccc(C(F)(F)F)c2)n2cncc2c1=O  Bromodomain-containing protein 9 (Homo sapiens, UniProt Q9H8M2)        log10(IC50)           3.87
8  Cn1cc(-c2ccc(C(=O)N3CCOCC3)cc2)n2cncc2c1=O  Bromodomain-containing protein 9 (Homo sapiens, UniProt Q9H8M2)        log10(IC50)           3.37
9  C/C=C/Cn1cc(-c2ccc(C(=O)N3CCN(S(C)(=O)=O)CC3)cc2Cl)n2cncc2c1=O  Bromodomain-containing protein 9 (Homo sapiens, UniProt Q9H8M2)        log10(IC50)           2.92
